Test system: PDC 899932-113-R3-J6 complex spheroid viability
Assay: Anticancer human tumor 899932-113-R3-J6-PDC patient-derived melanoma cell line growth inhibition [RAS]
Conditions: second compound 0.0316 µM; first compound 1 µM; stronger effect = lower value
parameter: viability, T/C (%)
Express your answer in %, writing the number without its unit.

Worked examples follow.
compound	target or system	viability, T/C (%)
NC1c2ccccc2OC12CCN(c1cnc3c(N4CCCc5ncccc54)n[nH]c3n1)CC2 (stereo unspecified) + C#Cc1c(F)ccc2cc(O)cc(-c3ncc4c(N5CC6CCC(C5)N6)nc(OCC56CCCN5CC(F)C6)nc4c3F)c12	PDC 899932-113-R3-J6 complex spheroid viability	121
C=CC(=O)N1CCN(c2nc(OCC3CCCN3C)nc3c(F)c(-c4nc(N)cc(C)c4C(F)(F)F)c(Cl)cc23)C(C)C1 (stereo unspecified) + C#Cc1c(F)ccc2cc(O)cc(-c3ncc4c(N5CC6CCC(C5)N6)nc(OCC56CCCN5CC(F)C6)nc4c3F)c12	PDC 899932-113-R3-J6 complex spheroid viability	104
CC(C)NCC(C(=O)N1CCN(c2ncnc3c2C(C)CC3O)CC1)c1ccc(Cl)cc1 (stereo unspecified) + C=CC(=O)N1CCN(c2nc(OCC3CCCN3C)nc3c(F)c(-c4nc(N)cc(C)c4C(F)(F)F)c(Cl)cc23)C(C)C1	PDC 899932-113-R3-J6 complex spheroid viability	82.7
O=C(c1ccc(F)c(F)c1Nc1ccc(I)cc1F)N1CC(O)([C@@H]2CCCCN2)C1 + C#Cc1c(F)ccc2cc(O)cc(-c3ncc4c(N5CC6CCC(C5)N6)nc(OCC56CCCN5CC(F)C6)nc4c3F)c12	PDC 899932-113-R3-J6 complex spheroid viability	1.68
CCC(CC)c1cc(NC2CCC(N)C2)n2nccc2n1 (stereo unspecified) + C#Cc1c(F)ccc2cc(O)cc(-c3ncc4c(N5CC6CCC(C5)N6)nc(OCC56CCCN5CC(F)C6)nc4c3F)c12	PDC 899932-113-R3-J6 complex spheroid viability	91.5

Value sought: viability, T/C, system PDC 899932-113-R3-J6 complex spheroid viability, item C[C@@H](NC(=O)c1ncnc(N)c1Cl)c1ncc(C(=O)Nc2cc(C(F)(F)F)c(Cl)cn2)s1 + C=CC(=O)N1CCN(c2nc(OCC3CCCN3C)nc3c(F)c(-c4nc(N)cc(C)c4C(F)(F)F)c(Cl)cc23)C(C)C1 . Result: 154

* * *

System: PDC 899932-113-R3-J6 complex spheroid viability
Test: Anticancer human tumor 899932-113-R3-J6-PDC cell line growth inhibition [RAS]; active = viability on the fitted dose curve at most 10% of control; inactive = the rest
Conditions: second compound 0.00949 µM; first compound 0.0949 µM
// classify into TRUE for active, FALSE for inactive

molecule	assigned category
CCc1c2c(nc3ccc(O)cc13)-c1cc3c(c(=O)n1C2)COC(=O)[C@]3(O)CC + CCn1c(-c2cccnc2C(C)OC)c2c3cc(ccc31)N1CCOC(CC(NC(=O)C(C(C)C)N(C)C(=O)C3(F)CCN(C(=O)C#CC(C)(C)N(C)C)CC3)C(=O)N3CCCC(N3)C(=O)OCC(C)(C)C2)C1	FALSE
CC1(C)CCC(Nc2ncc(C(F)(F)F)c(-c3c[nH]c4c(P(C)(C)=O)c(C#N)ccc34)n2)CN1 (centres undefined) + CCn1c(-c2cccnc2C(C)OC)c2c3cc(ccc31)N1CCOC(CC(NC(=O)C(C(C)C)N(C)C(=O)C3(F)CCN(C(=O)C#CC(C)(C)N(C)C)CC3)C(=O)N3CCCC(N3)C(=O)OCC(C)(C)C2)C1	FALSE
CC1(C)CCC(Nc2ncc(C(F)(F)F)c(-c3c[nH]c4c(P(C)(C)=O)c(C#N)ccc34)n2)CN1 (centres undefined) + CCn1c(-c2cc(N3CCN(C)CC3)cnc2C(C)OC)c2c3cc(ccc31)-c1csc(n1)CC(NC(=O)C1CC1C)C(=O)N1CCCC(N1)C(=O)OCC(C)(C)C2	TRUE

Enquiry: Outcome? CCc1c2c(nc3ccc(O)cc13)-c1cc3c(c(=O)n1C2)COC(=O)[C@]3(O)CC + CCn1c(-c2cc(N3CCN(C)CC3)cnc2C(C)OC)c2c3cc(ccc31)-c1csc(n1)CC(NC(=O)C1CC1C)C(=O)N1CCCC(N1)C(=O)OCC(C)(C)C2
Return: TRUE

* * *

System: PDC 899932-113-R3-J6 complex spheroid viability
Assay: Anticancer human tumor 899932-113-R3-J6-PDC cell line growth inhibition [RAS]
Settings: curve of first compound; second compound 0.1 µM
parameter: IC50 (nM)
Give just the number in nM; leave the unit off.

Some solved entries appear below for comparison.
compound	uom	experimental value
CCN1CCN(Cc2ccc(Nc3ncc(F)c(-c4cc(F)c5nc(C)n(C(C)C)c5c4)n3)nc2)CC1 + C=CC(=O)N1CCN(c2nc(OCC3CCCN3C)nc3c(F)c(-c4nc(N)cc(C)c4C(F)(F)F)c(Cl)cc23)C(C)C1	nM	429
Nc1ccn(C2OC(CO)C(O)C2(F)F)c(=O)n1 (stereo not given) + C#Cc1c(F)ccc2cc(O)cc(-c3ncc4c(N5CC6CCC(C5)N6)nc(OCC56CCCN5CC(F)C6)nc4c3F)c12	nM	19.3

Now let's try a different one.
Form field, IC50 with PDC 899932-113-R3-J6 complex spheroid viability, item O=C(c1ccc(F)c(F)c1Nc1ccc(I)cc1F)N1CC(O)([C@@H]2CCCCN2)C1 + C#Cc1c(F)ccc2cc(O)cc(-c3ncc4c(N5CC6CCC(C5)N6)nc(OCC56CCCN5CC(F)C6)nc4c3F)c12 : 10.1

* * *

System: PDC 899932-113-R3-J6 complex spheroid viability
Experiment: Anticancer human tumor 899932-113-R3-J6-PDC cell line growth inhibition [RAS];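 as to viability, T/C: spheroids exposed to agents for seven days before readout; 100% = DMSO vehicle control wells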
Conditions: second compound 0.00316 µM; first compound 0.1 µM; stronger effect = lower value
Item-by-item account of viability, T/C
Enter your answer as a number in %; do not include the unit.

Example entries begin here.
compound	viability, T/C (%)
CC(Nc1ccc2c(c1)OCCn1cc(N3C(=O)OCC3C(F)F)nc1-2)C(N)=O (stereo not given) + C=CC(=O)N1CCN(c2nc(OCC3CCCN3C)nc3c(F)c(-c4nc(N)cc(C)c4C(F)(F)F)c(Cl)cc23)C(C)C1	72.4
C[C@@H](NC(=O)c1ncnc(N)c1Cl)c1ncc(C(=O)Nc2cc(C(F)(F)F)c(Cl)cn2)s1 + C=CC(=O)N1CCN(c2nc(OCC3CCCN3C)nc3c(F)c(-c4nc(N)cc(C)c4C(F)(F)F)c(Cl)cc23)C(C)C1	152
C=CC(=O)Nc1cc(Nc2nccc(-c3cn(C)c4ccccc34)n2)c(OC)cc1N(C)CCN(C)C + C=CC(=O)N1CCN(c2nc(OCC3CCCN3C)nc3c(F)c(-c4nc(N)cc(C)c4C(F)(F)F)c(Cl)cc23)C(C)C1	99.1
CCC(CC)c1cc(NC2CCC(N)C2)n2nccc2n1 (stereo not given) + C=CC(=O)N1CCN(c2nc(OCC3CCCN3C)nc3c(F)c(-c4nc(N)cc(C)c4C(F)(F)F)c(Cl)cc23)C(C)C1	96.1

// below: viability, T/C requested for another compound
Hey, PDC 899932-113-R3-J6 complex spheroid viability data for Nc1ccn(C2OC(CO)C(O)C2(F)F)c(=O)n1 (stereo not given) + C=CC(=O)N1CCN(c2nc(OCC3CCCN3C)nc3c(F)c(-c4nc(N)cc(C)c4C(F)(F)F)c(Cl)cc23)C(C)C1 : viability, T/C came out at 20.8

* * *

Test system: PDC 899932-113-R3-J6 complex spheroid viability
Test: Anticancer human tumor 899932-113-R3-J6-PDC cell line growth inhibition [RAS];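 as to viability, T/C: spheroids exposed to agents for seven days before readout; 100% = DMSO vehicle control wells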
Conditions: second compound 0.003 µM; first compound 0.0316 µM; stronger effect = lower value
Source text: RAS pathway inhibitors in Combinations in Complex Spheroids A high-throughput screen of multi-cell type tumor spheroids was designed to identify active combinations of RAS pathway inhibitors and targeted small molecules. Complex spheroids include a stromal component modeled by human endothelial cells (HUVEC) and fibroblasts modeled by human mesenchymal stem cells (MSCs). […] Compounds. […] If the clinical Cmax for an agent had not been determined, the highest concentration tested was 10 microM. […]
parameter: viability, T/C (%)
Kindly provide the numeric value in % only, without the unit symbol.

# molecule Cc1nc(N2CCC3(CC2)COC(C)C3N)c(CO)nc1Sc1ccnc(N)c1Cl (centres undefined) + CCn1c(-c2cccnc2C(C)OC)c2c3cc(ccc31)N1CCOC(CC(NC(=O)C(C(C)C)N(C)C(=O)C3(F)CCN(C(=O)C#CC(C)(C)N(C)C)CC3)C(=O)N3CCCC(N3)C(=O)OCC(C)(C)C2)C1 ; its viability, T/C = 102

get_value(item= O=C(c1ccc(F)c(F)c1Nc1ccc(I)cc1F)N1CC(O)([C@@H]2CCCCN2)C1 + CCn1c(-c2cc(N3CCN(C)CC3)cnc2C(C)OC)c2c3cc(ccc31)-c1csc(n1)CC(NC(=O)C1CC1C)C(=O)N1CCCC(N1)C(=O)OCC(C)(C)C2 , readout=viability, T/C) returns 2.47

viability, T/C reading for CCN1CCN(Cc2ccc(Nc3ncc(F)c(-c4cc(F)c5nc(C)n(C(C)C)c5c4)n3)nc2)CC1 + CCn1c(-c2cc(N3CCN(C)CC3)cnc2C(C)OC)c2c3cc(ccc31)-c1csc(n1)CC(NC(=O)C1CC1C)C(=O)N1CCCC(N1)C(=O)OCC(C)(C)C2 : 33.3

Field viability, T/C (entry C=CC(=O)Nc1cc(Nc2nccc(-c3cn(C)c4ccccc34)n2)c(OC)cc1N(C)CCN(C)C + CCn1c(-c2cc(N3CCN(C)CC3)cnc2C(C)OC)c2c3cc(ccc31)-c1csc(n1)CC(NC(=O)C1CC1C)C(=O)N1CCCC(N1)C(=O)OCC(C)(C)C2 ) reads 28.7

Values were extracted from PubChem BioAssay AID2060895.
